- test.target: Adenosine receptor A2a (Homo sapiens, UniProt P29274)
- Sequence (P29274 whole entry): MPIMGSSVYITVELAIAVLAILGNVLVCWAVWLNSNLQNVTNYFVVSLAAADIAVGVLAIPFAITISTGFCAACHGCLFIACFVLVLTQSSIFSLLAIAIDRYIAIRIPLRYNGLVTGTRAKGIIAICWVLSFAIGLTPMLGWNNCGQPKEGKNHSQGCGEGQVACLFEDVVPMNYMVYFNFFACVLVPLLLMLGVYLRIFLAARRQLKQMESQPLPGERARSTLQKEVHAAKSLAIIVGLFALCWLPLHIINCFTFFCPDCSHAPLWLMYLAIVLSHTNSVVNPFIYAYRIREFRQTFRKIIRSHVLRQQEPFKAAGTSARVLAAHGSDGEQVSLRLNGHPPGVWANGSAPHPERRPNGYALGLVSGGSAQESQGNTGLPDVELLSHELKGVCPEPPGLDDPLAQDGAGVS
- procedure.details: Displacement of [3H]CGS21680 form human adenosine A2A receptor expressed in HEK cells at 10 uM
- condition.description: HEK293
assay.metric: inhibition (%)

In the examples that follow, each entry is paired with its recorded inhibition.
structure.string: CCOC(=O)[C@@]12C[C@@H]1[C@@H](n1cnc3c(NCc4cc(Cl)ccc4OC)nc(Cl)nc31)[C@H](O)[C@@H]2O
scale.unit: %
inhibition: 37
--
structure.string: CCOC(=O)[C@@]12C[C@@H]1[C@@H](n1cnc3c(NCc4cccc(Cl)c4)nc(Cl)nc31)[C@H](O)[C@@H]2O
scale.unit: %
inhibition: 19

[P] CON(C)C(=O)[C@H]1O[C@@H](n2cnc3c(NCc4cccc(I)c4)nc(Cl)nc32)[C@H](O)[C@@H]1O
[Q] CCOC(=O)[C@@]12C[C@@H]1[C@@H](n1cnc3c(NCc4cccc(Cl)c4)nc(SC)nc31)[C@H](O)[C@@H]2O
[R] O=C(O)[C@H]1O[C@@H](n2cnc3c(NCc4cccc(I)c4)nc(Cl)nc32)[C@H](O)[C@@H]1O
Q: List items by inhibition in falling order. Please write the labels in the order that was asked for.
Ans: P, Q, R
